Molecular target: T1, corticotropin-releasing hormone (CRH) peptide (human and mouse (same sequence), not fully specified)
T1 peptide: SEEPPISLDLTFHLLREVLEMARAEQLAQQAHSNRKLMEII
Assay: cell-based or functional assay
# mCrhr1 Luciferase Reporter Assay IC50 per record follows
property label: mCrhr1 Luciferase Reporter Assay IC50 (nM)

binder	property label	measured result
PR004290 (antibody, human IgG1, kappa, V domains shown, Series 1; human IgG1 wildtype Fc; also called Hybridoma Clone 28b3) VH: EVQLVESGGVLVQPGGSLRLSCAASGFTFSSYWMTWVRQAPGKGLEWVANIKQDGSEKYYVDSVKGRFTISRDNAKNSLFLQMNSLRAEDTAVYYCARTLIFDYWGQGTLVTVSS VL: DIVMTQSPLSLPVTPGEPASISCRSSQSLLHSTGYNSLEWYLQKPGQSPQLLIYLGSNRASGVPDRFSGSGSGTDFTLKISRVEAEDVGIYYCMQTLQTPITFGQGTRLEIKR	mCrhr1 Luciferase Reporter Assay IC50	18.5
PR302050 (antibody, human IgG1, kappa, V domains shown, humanized variant of PR301777) VH: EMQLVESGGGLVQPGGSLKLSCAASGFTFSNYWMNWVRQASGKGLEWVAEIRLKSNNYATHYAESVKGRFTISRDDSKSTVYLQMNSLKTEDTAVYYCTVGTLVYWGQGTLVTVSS VL: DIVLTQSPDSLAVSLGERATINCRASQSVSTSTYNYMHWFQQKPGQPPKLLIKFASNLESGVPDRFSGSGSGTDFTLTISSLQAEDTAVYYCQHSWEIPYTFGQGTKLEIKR	mCrhr1 Luciferase Reporter Assay IC50	2.7
